System: NOMO1
Test: cell viability relative to DMSO control; higher = less cytotoxic
Settings: RPMI 5 mM glucose + 10% FBS; 48 h; 1.71 µM
Binarize cell viability at 90%; below is t, at or above is f.

Use these answered entries as a reference point.
Strictly below 90%: is that where cell viability of Clc1cccc(-c2nnnn2Cc2cccnc2)c1Cl sits?
t

Strictly below 90%: is that where cell viability of CC(=O)N1CCN(c2ccc(OCc3nn(C)c(C)c3-c3cccc4c(CCCOc5cc(C)c(Cl)c(C)c5)c(C(=O)O)n(Cc5cccnc5)c34)cc2)CC1 sits?
f

Strictly below 90%: is that where cell viability of Fc1ccc(C(c2ccc(F)cc2)N2CCN(C/C=C/c3ccccc3)CC2)cc1 sits?
f

Strictly below 90%: is that where cell viability of CC[C@]1(O)C[C@H]2CN(CCC3=C([NH]C4=C3C=CC=C4)[C@@](C2)(C(=O)OC)C5=CC6=C(C=C5OC)N(C=O)[C@H]7[C@](O)([C@H](OC(C)=O)[C@]8(CC)\C=C/C[N@@]9CC[C@]67[C@H]89)C(=O)OC)C1 sits?
t

Next:
Strictly below 90%: is that where cell viability of CNC(=O)[C@H](Cc1ccccc1)NC(=O)[C@H](CC(C)C)[C@H](CSc1cccs1)C(=O)NO sits?
f

---

Listing of recorded cell viability by entry.
Test system: SEM cells
Experiment: cell viability relative to DMSO control; higher = less cytotoxic
Conditions: HPLM + 10% dialyzed FBS; 48 h; 0.000781 µM
The reply should contain only the number, in %.

Study these solved cases before continuing.
The reported value for CC(C)C[C@H](CN)CC(=O)O in terms of cell viability is 110

The reported value for CNC(=O)[C@H](Cc1ccccc1)NC(=O)[C@H](CC(C)C)[C@H](CSc1cccs1)C(=O)NO in terms of cell viability is 83

The reported value for Nc1ccccc1NC(=O)c1ccc(CNc2nccc(-c3cccnc3)n2)cc1 in terms of cell viability is 98.4

***
The reported value for COc1nc(-c2ccc3c(c2)OCO3)n(-c2ccc(NC(=O)CSc3ccccc3)cc2)n1 in terms of cell viability is 118

The reported value for COc1cc(N2CCC(O)CC2)ccc1Nc1cc(Nc2ccccc2[S+](=O)([O-])C(C)C)c2cc[nH]c2n1 in terms of cell viability is 87.5

The reported value for CN(C)Cc1ccc(-c2nc3cccc4c3n2CCNC4=O)cc1 in terms of cell viability is 100

The reported value for CN(C)CCOC(c1ccccc1)c1ccccc1 in terms of cell viability is 90.4

The reported value for CNC(=O)c1cccc(-c2ccc3c(N4CCOC[C@@H]4C)nc(N4CCOC[C@@H]4C)nc3n2)c1 in terms of cell viability is 97.5

The reported value for O=C/1\C=C(/OC(=C1)/C2=C3SC4=C(SC3=CC=C2)C=CC=C4)N5CCOCC5 in terms of cell viability is 74.3

The reported value for C[C@H]1CN(C[C@@H](C)O1)CC(=O)NC2=CC=C3SC4=C(CC3=C2)C=CC=C4\C5=C\C(=O)\C=C(/O5)N6CCOCC6 in terms of cell viability is 80.4

---

Listing of recorded cell viability by entry.
System: P12-Ichikawa
Assay: cell viability relative to DMSO control; higher = less cytotoxic
Conditions: RPMI 5 mM glucose + 10% FBS; 48 h; 0.0211 µM

Hey, P12-Ichikawa data for C#CCN(C)[C@H](C)Cc1ccccc1 : cell viability came out at 83.7%
